molecular target: Serine/threonine-protein kinase PLK2 (Homo sapiens, UniProt Q9NYY3); assay: Inhibition of recombinant C-terminal 6His-tagged human PLK2-PBD expressed in Escherichia coli BL21(DE3) rosetta cells using 5-carboxyfluorescein-GPMQTSpTPKNG-OH as substrate preincubated for 1 hr followed by substrate addition and measured after 1 hr by fluorescence polarization assay
Sequence (Q9NYY3 whole entry): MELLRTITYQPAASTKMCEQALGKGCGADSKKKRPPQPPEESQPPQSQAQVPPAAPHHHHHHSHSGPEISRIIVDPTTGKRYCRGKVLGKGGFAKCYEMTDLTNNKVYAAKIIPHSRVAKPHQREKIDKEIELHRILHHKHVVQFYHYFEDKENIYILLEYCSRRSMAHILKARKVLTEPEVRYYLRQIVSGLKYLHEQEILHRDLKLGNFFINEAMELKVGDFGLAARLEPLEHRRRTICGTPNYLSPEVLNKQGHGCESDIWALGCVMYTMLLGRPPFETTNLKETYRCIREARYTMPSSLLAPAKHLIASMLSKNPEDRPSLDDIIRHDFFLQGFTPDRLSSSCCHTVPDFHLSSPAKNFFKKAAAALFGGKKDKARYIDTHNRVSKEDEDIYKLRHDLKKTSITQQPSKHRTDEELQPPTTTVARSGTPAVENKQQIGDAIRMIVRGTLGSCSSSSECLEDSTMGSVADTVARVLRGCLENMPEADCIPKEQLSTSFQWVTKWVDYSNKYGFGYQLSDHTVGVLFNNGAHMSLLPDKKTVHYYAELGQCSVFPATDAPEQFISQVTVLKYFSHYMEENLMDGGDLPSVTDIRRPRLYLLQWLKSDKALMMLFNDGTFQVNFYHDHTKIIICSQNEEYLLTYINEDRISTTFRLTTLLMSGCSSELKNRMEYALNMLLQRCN
experimentalEndpoint: IC50 (µM)
Respond with the bare value in µM.

[Q] Data request, read-out IC50, for `C[C@@]12CN(Cc3cccc(C#N)c3)C[C@@](C)(C1)c1c(-c3ccc4ccccc4c3)ccc(=O)n1C2`
[A] 95.5

* * *

target: Serine/threonine-protein kinase PLK1 (Homo sapiens, UniProt P53350); test: Inhibition of PLK1-PBD (unknown origin) using FITC-GPMQSpTPLNG-OH as substrate measured after 30 mins by Fluorescence polarization assay
Sequence (P53350 whole entry, the tested form may be a part): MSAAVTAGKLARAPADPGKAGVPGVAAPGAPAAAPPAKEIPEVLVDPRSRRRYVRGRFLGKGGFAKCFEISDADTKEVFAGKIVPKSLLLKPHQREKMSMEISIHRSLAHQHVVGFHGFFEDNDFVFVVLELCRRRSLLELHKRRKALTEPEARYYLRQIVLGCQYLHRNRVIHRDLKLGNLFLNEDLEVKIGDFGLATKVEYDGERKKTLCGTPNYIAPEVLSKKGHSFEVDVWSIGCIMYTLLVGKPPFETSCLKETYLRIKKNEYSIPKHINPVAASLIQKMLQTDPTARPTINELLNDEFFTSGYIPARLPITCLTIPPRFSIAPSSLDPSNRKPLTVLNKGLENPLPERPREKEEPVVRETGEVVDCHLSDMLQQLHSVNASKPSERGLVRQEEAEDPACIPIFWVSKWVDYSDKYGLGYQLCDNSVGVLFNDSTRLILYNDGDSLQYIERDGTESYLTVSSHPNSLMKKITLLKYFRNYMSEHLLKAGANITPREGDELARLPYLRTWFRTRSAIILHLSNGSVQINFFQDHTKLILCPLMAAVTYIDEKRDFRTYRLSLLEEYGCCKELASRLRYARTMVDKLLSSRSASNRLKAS
experimentalEndpoint: IC50 (nM)
Respond with the bare value in nM.

[Q] Data request, read-out IC50, for CC(CC(=O)N[C@H](C(=O)N[C@@H](CO)C(=O)N[C@H](C(N)=O)[C@@H](C)OP(=O)(O)O)c1cncs1)NC(=O)c1ccc(CO)cc1 (single isomer, unassigned)
[A] 267

* * *

target: Serine/threonine-protein kinase PLK3 (Homo sapiens, UniProt Q9H4B4); assay: Inhibition of recombinant N-terminal MBP-tagged human PLK3-PBD expressed in Escherichia coli BL21(DE3) rosetta cells using 5-carboxyfluorescein-GPLATSpTPKNG-NH2 as substrate preincubated for 1 hr followed by substrate addition and measured after 1 hr by fluorescence polarization assay
Sequence (Q9H4B4 whole entry): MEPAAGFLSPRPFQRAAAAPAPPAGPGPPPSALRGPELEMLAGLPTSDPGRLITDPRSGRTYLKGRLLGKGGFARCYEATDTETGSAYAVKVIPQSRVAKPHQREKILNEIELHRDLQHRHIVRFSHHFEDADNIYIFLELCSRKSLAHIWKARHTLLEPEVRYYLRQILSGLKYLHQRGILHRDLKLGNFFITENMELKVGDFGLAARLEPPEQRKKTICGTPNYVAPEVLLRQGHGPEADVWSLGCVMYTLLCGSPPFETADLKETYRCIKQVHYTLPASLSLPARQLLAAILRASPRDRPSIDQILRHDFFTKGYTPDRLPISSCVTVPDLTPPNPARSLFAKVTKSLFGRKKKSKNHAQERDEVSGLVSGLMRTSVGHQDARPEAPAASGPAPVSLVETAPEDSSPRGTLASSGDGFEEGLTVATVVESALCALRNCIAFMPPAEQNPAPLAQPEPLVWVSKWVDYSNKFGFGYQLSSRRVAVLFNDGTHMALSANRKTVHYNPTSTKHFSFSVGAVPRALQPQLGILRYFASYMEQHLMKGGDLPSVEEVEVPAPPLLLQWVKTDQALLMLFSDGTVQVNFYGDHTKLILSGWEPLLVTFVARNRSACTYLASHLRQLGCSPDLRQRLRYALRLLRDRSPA
pIC50: −log10 of the molar value.
experimentalEndpoint: pIC50

[Q] Form field - read-out: pIC50; system: Serine/threonine-protein kinase PLK3 (Homo sapiens, UniProt Q9H4B4); submitted item: `C[C@@]12CN(Cc3cccc(C#N)c3)C[C@@](C)(C1)c1c(-c3ccc4ccccc4c3)ccc(=O)n1C2`
[A] < 4.00

* * *

molecular target: Serine/threonine-protein kinase PLK1 (Homo sapiens); assay: Inhibition of PLK1 (unknown origin)
experimentalEndpoint: pIC50
Units for pIC50: none; it is -log10 of a concentration expressed in mol/L.

[Q] Data request, read-out pIC50, for `COc1cc2ncn(-c3cc(-c4cccc(C(F)(F)F)c4)c(C(N)=O)s3)c2cc1OC`
[A] 8.66

* * *

target: Serine/threonine-protein kinase PLK1 (Homo sapiens, UniProt P53350); experiment: Inhibition of human PLK1-PBD (326 to 603 residues) expressed in Escherichia coli BL21(DE3) rosetta cells using 5-carboxyfluorescein-GPMQSpTPLNG-OH as substrate preincubated for 1 hr followed by substrate addition and measured after 1 to 2 hr by fluorescence polarization assay
experimentalEndpoint: IC50 (µM)
Respond with the bare value in µM.

[Q] Data request, read-out IC50, for `CCOC(=O)c1oc2ccccc2c1CBr`
[A] 16.4
